Every entry's value here was drawn from patent US20170291939A1.

Reported Off-rate ELISA (normalized to XAB1 Fab) by item:
Biological target: T1, human IL-17A (construct not specified) (human, UniProt Q16552 24-155, limits assumed)
T1 construct: also called huIL-17A
T1 sequence: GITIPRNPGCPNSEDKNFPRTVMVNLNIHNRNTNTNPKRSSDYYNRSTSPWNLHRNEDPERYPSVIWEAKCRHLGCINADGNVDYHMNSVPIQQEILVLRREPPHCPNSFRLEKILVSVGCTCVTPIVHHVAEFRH
Test: ELISA, coated huIL-17A, long wash
Hi! Could you send only the number? It should be in fold, unit omitted.

Illustrative cases are given below, each with its answer.
Input line: Please give the measured Off-rate ELISA (normalized to XAB1 Fab) for this binder: MB435 (Fab, V domains shown) VH: EVQLVESGGDLVQPGGSLRLSCAASGFTFSSYWMSWVRQAPGKGLEWVANIKQDGSEKYYVDSVKGRFTISRDNAKNSLYLQMNSLRAEDTAVYYCARDRGSLYYWGQGTLVTVSS VL: AIQLTQSPSSLSASVGDRVTITCRPSQGINWELAWYQQKPGKAPKLLIYDASSLENGVPSRFSGSGSGTDFTLTISSLQPEDFATYYCQQFNSYPLTFGGGTKVEIK
Output line: 44.7

Input line: Please give the measured Off-rate ELISA (normalized to XAB1 Fab) for this binder: MB444 (Fab, V domains shown, Fab variant of XAB1) VH: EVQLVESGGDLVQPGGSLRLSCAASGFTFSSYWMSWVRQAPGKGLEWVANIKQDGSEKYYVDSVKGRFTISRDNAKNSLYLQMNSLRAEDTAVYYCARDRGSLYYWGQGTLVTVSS VL: AIQLTQSPSSLSASVGDRVTITCRPSQGILWELAWYQQKPGKAPKLLIYDASSLENGVPSRFSGSGSGTDFTLTISSLQPEDFATYYCQQFNSYPLTFGGGTKVEIK
Output line: 48.9

Input line: Please give the measured Off-rate ELISA (normalized to XAB1 Fab) for this binder: MB491 (Fab, V domains shown, Fab variant of XAB1) VH: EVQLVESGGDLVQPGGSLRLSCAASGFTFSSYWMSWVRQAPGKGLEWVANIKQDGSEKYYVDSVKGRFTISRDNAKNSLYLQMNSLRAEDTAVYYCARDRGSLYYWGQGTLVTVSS VL: AIQLTQSPSSLSASVGDRVTITCRPSQGIFFWLAWYQQKPGKAPKLLIYDASSLENGVPSRFSGSGSGTDFTLTISSLQPEDFATYYCQQFNSYPLTFGGGTKVEIK
Output line: 43

Others:
Input line: Please give the measured Off-rate ELISA (normalized to XAB1 Fab) for this binder: MB458 (Fab, V domains shown, Fab variant of XAB1) VH: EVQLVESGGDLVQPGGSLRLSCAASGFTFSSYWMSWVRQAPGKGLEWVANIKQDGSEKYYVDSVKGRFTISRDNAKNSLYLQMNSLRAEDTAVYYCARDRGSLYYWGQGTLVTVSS VL: AIQLTQSPSSLSASVGDRVTITCRPSQGIWYQLAWYQQKPGKAPKLLIYDASSLENGVPSRFSGSGSGTDFTLTISSLQPEDFATYYCQQFNSYPLTFGGGTKVEIK
Output line: 33
